biological target: Albumin (Homo sapiens, UniProt P02768); assay: Binding affinity to human serum albumin by fast gradient HPLC; format: ADME; conditions: isolated protein
Sequence (P02768 whole entry): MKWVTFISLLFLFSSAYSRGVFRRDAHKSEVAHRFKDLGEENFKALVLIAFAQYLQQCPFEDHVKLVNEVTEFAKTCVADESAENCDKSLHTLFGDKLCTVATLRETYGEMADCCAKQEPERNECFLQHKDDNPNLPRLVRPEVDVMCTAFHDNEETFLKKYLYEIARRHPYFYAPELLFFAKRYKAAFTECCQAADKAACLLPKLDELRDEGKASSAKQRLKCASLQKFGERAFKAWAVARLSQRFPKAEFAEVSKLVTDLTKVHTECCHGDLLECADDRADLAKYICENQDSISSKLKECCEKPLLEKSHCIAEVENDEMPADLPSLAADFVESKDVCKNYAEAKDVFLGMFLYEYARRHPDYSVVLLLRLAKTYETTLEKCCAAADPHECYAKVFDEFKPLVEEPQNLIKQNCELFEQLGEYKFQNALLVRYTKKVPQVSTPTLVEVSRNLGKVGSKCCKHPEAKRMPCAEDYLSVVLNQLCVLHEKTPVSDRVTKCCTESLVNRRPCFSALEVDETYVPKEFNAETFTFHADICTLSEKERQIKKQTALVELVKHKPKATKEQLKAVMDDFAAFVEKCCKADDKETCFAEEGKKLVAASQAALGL
Can you tell me Activity for the items I'm about to list?
Reply with just the number (in %).

Query block: For Nc1c(C(=O)NCC(O)(CN(CCF)C(=O)c2c(F)cccc2F)C(F)(F)F)cnn1-c1ccc(F)cc1 (racemic) , what is its reported Activity?
Result block: 93

Query block: Need Activity of Nc1c(C(=O)NCC(O)(CN(CCO)C(=O)c2c(Cl)cccc2Cl)C(F)(F)F)cnn1-c1ccc(F)cc1 (configuration not stated) , thanks.
Result block: 89

Query block: Given CCN(CC(O)(CNC(=O)c1cnn(-c2ccc(F)cc2)c1N)C(F)(F)F)C(=O)c1ncccc1Cl (configuration not stated) , state its recorded Activity.
Result block: 83

Query block: For the compound Nc1c(C(=O)NCC(O)(CN(CCO)C(=O)c2c(F)cccc2F)C(F)(F)F)cnn1-c1ccc(F)cc1 (configuration not stated) , what Activity is on record?
Result block: 81

Query block: Activity lookup needed for CCN(CC(O)(CNC(=O)c1cnn(-c2ccc(F)cc2)c1N)C(F)(F)F)C(=O)c1c(Cl)cccc1Cl (configuration not stated) , thanks.
Result block: 95

Query block: Can you look up the measured Activity of CCN(CC(O)(CNC(=O)c1cnn(-c2ccc(F)cc2)c1N)C(F)(F)F)C(=O)c1c(F)cccc1F (configuration not stated) for me?
Result block: 93

Query block: Requested field: Activity. Item: CCN(CC(O)(CNC(=O)c1cnn(-c2ccc(F)cc2)c1N)C(F)(F)F)C(=O)c1ccccc1S(C)(=O)=O (configuration not stated)
Result block: 81

====

Please respond with reported fraction unbound for every item in the list.
experiment: Protein binding in human plasma by ultrafiltration; type: ADME, cell-free; settings: read-out: PPB (converted)
Please respond with just the number, no unit label.

Query block: Which fraction unbound reading was recorded for the molecule CCN(CC(O)(CNC(=O)c1cnn(-c2ccc(F)cc2)c1N)C(F)(F)F)C(=O)c1c(F)cccc1F (stereo unspecified) ?
Result block: 0.03

Query block: If you can, please state the reported fraction unbound value of Nc1c(C(=O)NCC(O)(CN(CCO)C(=O)c2c(F)cccc2F)C(F)(F)F)cnn1-c1ccc(F)cc1 (stereo unspecified) .
Result block: 0.32

Query block: What does the data say about its fraction unbound? Entry: Nc1c(C(=O)NCC(O)(CN(CCF)C(=O)c2c(F)cccc2F)C(F)(F)F)cnn1-c1ccc(F)cc1 (racemic)
Result block: 0.07

Query block: // lookup fraction unbound for CCN(CC(O)(CNC(=O)c1cnn(-c2ccc(F)cc2)c1N)C(F)(F)F)C(=O)c1ncccc1Cl (stereo unspecified)
Result block: 0.15

Query block: // lookup fraction unbound for CCN(CC(O)(CNC(=O)c1cnn(-c2ccc(F)cc2)c1N)C(F)(F)F)C(=O)c1c(Cl)cccc1Cl (stereo unspecified)
Result block: 0.01

Query block: Form field: reported fraction unbound of Nc1c(C(=O)NCC(O)(CN(CCO)C(=O)c2c(Cl)cccc2Cl)C(F)(F)F)cnn1-c1ccc(F)cc1 (stereo unspecified)
Result block: 0.07

====

Give pEC50 for every item shown.
pEC50 here: minus log base 10 of the concentration, concentration in moles per litre.

Query block: Test system Glucocorticoid receptor (Homo sapiens); read-out pEC50; what value for CCN(CC(O)(CNC(=O)c1cnn(-c2ccc(F)cc2)c1N)C(F)(F)F)C(=O)c1ccc(F)cc1Cl (racemic) ?
Result block: 6.50

Query block: Entry CCN(CC(O)(CNC(=O)c1cnn(-c2ccc(F)cc2)c1N)C(F)(F)F)C(=O)c1cccnc1Cl (racemic) , system Glucocorticoid receptor (Homo sapiens): what pEC50 was measured?
Result block: 6.10

Query block: I'm curious: which pEC50 was measured for CCN(CC(O)(CNC(=O)c1cnn(-c2ccc(F)cc2)c1N)C(F)(F)F)C(=O)c1ccccc1 (racemic) tested on Glucocorticoid receptor (Homo sapiens)?
Result block: 7.30

Query block: Give Glucocorticoid receptor (Homo sapiens) pEC50 for CCN(CC(O)(CNC(=O)c1cnn(-c2ccc(F)cc2)c1N)C(F)(F)F)C(=O)c1ccccc1S(C)(=O)=O (stereo not drawn)
Result block: 6.80

Query block: Please provide the recorded pEC50 for Nc1c(C(=O)NCC(O)(CN(CCF)C(=O)c2c(F)cccc2F)C(F)(F)F)cnn1-c1ccc(F)cc1 (racemic) , tested on Glucocorticoid receptor (Homo sapiens).
Result block: 7.30

Query block: Field: pEC50 (Glucocorticoid receptor (Homo sapiens)). Entry: CCN(CC(O)(CNC(=O)c1cnn(-c2ccc(F)cc2)c1N)C(F)(F)F)C(=O)c1c(F)cccc1F (stereo not drawn)
Result block: 8.10

Query block: Request body: readout pEC50, system Glucocorticoid receptor (Homo sapiens), query CCN(CC(O)(CNC(=O)c1cnn(-c2ccc(F)cc2)c1N)C(F)(F)F)C(=O)c1c(Cl)cccc1Cl (stereo not drawn) . Return the value.
Result block: 8.70

====

Target: Glucocorticoid receptor (Homo sapiens)
Sequence (P04150 whole entry): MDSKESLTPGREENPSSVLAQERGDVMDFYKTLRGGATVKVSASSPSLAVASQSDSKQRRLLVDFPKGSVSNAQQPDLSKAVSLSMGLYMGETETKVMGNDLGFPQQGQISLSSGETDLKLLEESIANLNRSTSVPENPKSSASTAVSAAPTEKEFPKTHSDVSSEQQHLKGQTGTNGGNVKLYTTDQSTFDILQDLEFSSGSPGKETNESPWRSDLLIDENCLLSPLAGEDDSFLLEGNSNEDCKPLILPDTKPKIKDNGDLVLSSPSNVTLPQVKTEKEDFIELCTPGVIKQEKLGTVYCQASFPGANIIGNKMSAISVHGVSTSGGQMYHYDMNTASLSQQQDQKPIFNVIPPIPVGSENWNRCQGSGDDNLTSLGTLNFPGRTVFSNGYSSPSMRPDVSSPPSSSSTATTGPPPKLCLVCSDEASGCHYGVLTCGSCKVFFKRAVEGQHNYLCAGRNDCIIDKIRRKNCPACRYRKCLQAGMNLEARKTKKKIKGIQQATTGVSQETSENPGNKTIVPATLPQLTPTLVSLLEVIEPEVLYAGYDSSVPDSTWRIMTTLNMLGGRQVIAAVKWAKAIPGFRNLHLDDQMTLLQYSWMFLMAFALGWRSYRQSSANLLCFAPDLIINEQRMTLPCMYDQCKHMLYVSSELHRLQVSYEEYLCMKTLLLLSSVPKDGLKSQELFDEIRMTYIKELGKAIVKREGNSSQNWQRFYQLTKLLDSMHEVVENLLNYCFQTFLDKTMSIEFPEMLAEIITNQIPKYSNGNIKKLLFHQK
measured.parameter: pIC50
# log scale: pIC50 equals minus log10 of the concentration in mol/L

Query block: Field request: pIC50 | item: Nc1c(C(=O)NCC(O)(CN(CCF)C(=O)c2c(F)cccc2F)C(F)(F)F)cnn1-c1ccc(F)cc1 (racemic)
Result block: 7.70

Query block: pIC50 lookup needed for CCN(CC(O)(CNC(=O)c1cnn(-c2ccc(F)cc2)c1N)C(F)(F)F)C(=O)c1c(F)cccc1F (stereo not drawn) , thanks.
Result block: 8.10

Query block: So what's the measured pIC50 for this one? CN(CC(O)(CNC(=O)c1cnn(-c2ccc(F)cc2)c1N)C(F)(F)F)C(=O)c1c(F)cccc1F (racemic)
Result block: 7.10

Query block: Item CCN(CC(O)(CNC(=O)c1cnn(-c2ccc(F)cc2)c1N)C(F)(F)F)C(=O)c1cccc(Cl)c1 (racemic) has what recorded pIC50?
Result block: 7.80

Query block: For the compound shown here, CCN(CC(O)(CNC(=O)c1cnn(-c2ccc(F)cc2)c1N)C(F)(F)F)C(=O)c1ccc2[nH]ccc2c1 (stereo not drawn) , give the reported pIC50.
Result block: 8.20

Query block: Look at this compound and give its reported pIC50. CCN(CC(O)(CNC(=O)c1cnn(-c2ccc(F)cc2)c1N)C(F)(F)F)C(=O)c1cccnc1Cl (racemic)
Result block: 7.40

Query block: Recorded pIC50 for CCN(CC(O)(CNC(=O)c1cnn(-c2ccc(F)cc2)c1N)C(F)(F)F)C(=O)c1ccc(Cl)cc1 (racemic) , please?
Result block: 6.50

Query block: Suppose we examine the compound CCN(CC(O)(CNC(=O)c1cnn(-c2ccc(F)cc2)c1N)C(F)(F)F)C(=O)c1c(Cl)cccc1Cl (stereo not drawn) ; what pIC50 value has been reported?
Result block: 8.50

Query block: I would be grateful if you could share the reported pIC50 for CCN(CC(O)(CNC(=O)c1cnn(-c2ccc(F)cc2)c1N)C(F)(F)F)C(=O)c1ccc(F)cc1Cl (racemic) .
Result block: 7.70

Query block: pIC50 lookup needed for CCN(CC(O)(CNC(=O)c1cnn(-c2ccc(F)cc2)c1N)C(F)(F)F)C(=O)c1ccccc1S(C)(=O)=O (stereo not drawn) , thanks.
Result block: 7.20

Query block: Fill blank: measured pIC50 of the compound CCN(CC(O)(CNC(=O)c1cnn(-c2ccc(F)cc2)c1N)C(F)(F)F)C(=O)c1ccccc1 (racemic) is ____.
Result block: 7.30

Query block: Recorded pIC50 of CCN(CC(O)(CNC(=O)c1cnn(-c2ccc(F)cc2)c1N)C(F)(F)F)C(=O)c1ccccc1F (stereo not drawn) , please.
Result block: 7.90

Query block: Sample Nc1c(C(=O)NCC(O)(CNC(=O)c2c(F)cccc2F)C(F)(F)F)cnn1-c1ccc(F)cc1 (racemic) — what was its pIC50?
Result block: 6.40
